assay: small-molecule microarray binders of probe aWnt5a, primary screen, biochemical, biotinylated probe, 635/667 nm fluorescence (AID 1113); details: higher = more signal;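 also: score merges 667 nm fluorescence intensity with signal-to-noise per printed feature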
# composite z-score per record follows
Respond with the number and no other words.

// known answers, use as guide
{"COMPOUND": "CCN1C(=O)[C@H]2[C@H]3[C@H](O)[C@H](O)CC(=NOC[C@@H](O)[C@H]4O[C@@H]5OC(C)(C)O[C@@H]5[C@H]4O)[C@@H]3CC[C@H]2C1=O", "composite z-score": -0.096}
{"COMPOUND": "CC(CCN1CCCCc2nc(C)c(C)cc21)=NO[C@H](C)c1cn([C@@H]2COC[C@H]2O)nn1", "composite z-score": -0.222}
{"COMPOUND": "O=C1[C@H]2[C@H]3[C@H](O)[C@H](O)CC(=NOC[C@@H](O)COCc4ccco4)[C@@H]3CC[C@H]2C(=O)N1c1cccc(Oc2ccccc2)c1", "composite z-score": -0.0758}
{"COMPOUND": "O=C1C2=CC[C@H]3C(=O)N(Cc4ccccc4)C(=O)[C@H]3[C@H]2[C@H](O)[C@@H]2O[C@H]12", "composite z-score": -0.129}
{"COMPOUND": "CC[C@@H](c1ccccc1)n1c(=O)n2n(c1=O)[C@H]1[C@H](O)[C@@H]3O[C@@H]3C(=NOCc3ccccc3)[C@H]1CC2", "composite z-score": -0.107}
{"COMPOUND": "CON=C(C)CCC(=O)OC[C@H]1O[C@H](C#Cc2ccccc2)C=C[C@@H]1Oc1ccc(C)cc1", "composite z-score": -0.0924}

Value lookup for composite z-score; key = `CC(=O)OC[C@H]1O[C@@H](ON=C(C)CCC(=O)OC[C@H]2O[C@H](C#Cc3ccccc3)C=C[C@@H]2Oc2ccc(C)cc2)[C@H](OC(C)=O)[C@@H](OC(C)=O)[C@@H]1OC(C)=O`
-0.0735

Value lookup for composite z-score; key = C[C@@H]1CC[C@H]2C(=O)OC(CN3C(=O)c4ccccc4C3=O)CN2[C@H]1c1ccc(Br)cc1 (stereo partly drawn)
-0.091

----------
# z-score per record follows
experiment: S. cerevisiae RM11-1a growth modifiers, primary screen, strain RM11-1a, OD600, basal, 24 h (AID 1177); conditions: OD600, 24 h, higher = more signal, called active from +8 up or from −8 down;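 also: cultures grown under basal conditions with no added stressor; test concentration not given here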
Respond with the number and no other words.

{"COMPOUND": "CC(CCN1CCCCc2nc(C)c(C)cc21)=NOC[C@@H](O)[C@H]1O[C@@H]2OC(C)(C)O[C@@H]2[C@H]1O", "z-score": -0.382}
{"COMPOUND": "CC(C)C(=O)N[C@H]1CCCN1C(=O)C=Cc1ccccc1", "z-score": 1.18}

Value lookup for z-score; key = `CC(C)=NO[C@@H](C)c1cn([C@H](CO)Cc2ccccc2)nn1`
-2.2

Value lookup for z-score; key = CO[C@@H](C(C)C)[C@@H](C)C1OC(=O)CC1O (some centres not stated)
-0.622

Value lookup for z-score; key = `CCN1C(=O)[C@H]2[C@H]3[C@H](O)[C@H](O)CC(=NNC(=O)OCc4ccccc4)[C@@H]3CC[C@H]2C1=O`
-0.338

Value lookup for z-score; key = C=CC[C@@H]1C=CC(ON=C(C)C)[C@@H](CO)O1 (some centres not stated)
1.1

Value lookup for z-score; key = CCOC(=O)[C@H](Cc1ccccc1)NC(=O)CCC1CC(OC(=O)NCc2cccc3ccccc23)CC2(CCCC(COC(=O)NCC3CCCCC3)O2)O1 (some centres not stated)
-0.104

Value lookup for z-score; key = `O=C(NN=C1C[C@@H](O)[C@@H](O)[C@@H]2[C@@H]3C(=O)N(Cc4ccc5c(c4)OCO5)C(=O)[C@@H]3CC[C@@H]12)OCc1ccccc1`
-1.09

----------
experiment: P. aeruginosa biofilm formation inhibitors, primary screen, PAO1 strain, BacTiter-Glo luminescence, LB-PBS (AID 1144); details: 12 h, higher = more signal
Threshold check on z-score: at or above 0.6 gives met, strictly below gives not met.

{"MOLECULE": "CSCC[C@@H]1NC(=O)CC=C[C@@H](C)COC(=O)[C@H](C)COC1=O", "CATEGORY": "not met"}
{"MOLECULE": "COc1ccc(COC(=O)NN=C2C[C@@H](O)[C@@H](O)[C@@H]3[C@@H]4C(=O)N(Cc5ccc6c(c5)OCO6)C(=O)[C@@H]4CC[C@H]23)cc1", "CATEGORY": "met"}
{"MOLECULE": "O=C1CCCC=C1C(O)c1ccc([N+](=O)[O-])cc1 (stereo not given)", "CATEGORY": "met"}
{"MOLECULE": "CCOC(=O)CCN1C(=O)[C@H]2[C@H]3[C@H](O)[C@H](O)CC(=NOCC=C(C)CCC=C(C)C)[C@@H]3CC[C@H]2C1=O", "CATEGORY": "not met"}
{"MOLECULE": "CC(C)[C@@H](OCc1ccccc1)[C@H](C)C=NO[C@@H](C)c1cn([C@H](CO)Cc2ccccc2)nn1", "CATEGORY": "not met"}

Say whether `CC(CCC(=O)OC[C@H]1O[C@H](C#Cc2ccccc2)C=C[C@@H]1Oc1ccc(C)cc1)=NO[C@H](C)c1cn([C@@H]2COC[C@H]2O)nn1` shows z-score of 0.6 or more.
not met

----------
assay: small-molecule binders of probe aNOTCH2, primary screen, biochemical, small-molecule microarray, 635/667 nm fluorescence (AID 1121); conditions: higher = more signal;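 also: score merges feature fluorescence read at 667 nm with its signal to noise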
PARAMETER MEASURED: composite z-score

// known answers, use as guide
{"COMPOUND": "CCc1cc2c(nc1CC)CCN(CCC(C)=NO[C@@H]1O[C@H](COC(C)=O)[C@@H](OC(C)=O)[C@H](OC(C)=O)[C@H]1OC(C)=O)C2", "composite z-score": -0.0527}
{"COMPOUND": "CCOC(=O)[C@H](CC(C)C)NC(=O)CCC1CC(OC(=O)NCCc2ccc(F)cc2)CC2(CCCC(COC(=O)NCc3cccc(C(F)(F)F)c3)O2)O1 (some centres undefined)", "composite z-score": -0.117}
{"COMPOUND": "CCOC(=O)CCN1C(=O)[C@H]2[C@H]3[C@H](O)[C@H](O)CC(=NO[C@@H]4O[C@H](CO)[C@@H](O)[C@H](O)[C@H]4O)[C@H]3CC[C@H]2C1=O", "composite z-score": -0.113}
{"COMPOUND": "COC(=O)[C@H](C)NC(=O)CCC1CC(OC(=O)NCCc2ccc(F)cc2)CC2(CCCC(COC(=O)NCc3ccccc3)O2)O1 (some centres undefined)", "composite z-score": -0.208}
{"COMPOUND": "CC(=O)OC[C@H]1O[C@H](CC=NOC[C@@H](O)COCc2ccco2)C=C[C@@H]1OC(C)=O", "composite z-score": -0.0022}

Value lookup for composite z-score; key = CCOC(=O)[C@H](CC(C)C)NC(=O)CCC1CC(OC(=O)NCc2ccc3c(c2)OCO3)CC2(CCCC(COC(=O)NCCc3ccccc3OC)O2)O1 (some centres undefined)
-0.0633

Value lookup for composite z-score; key = `COC(OC)[C@@H](C)[C@H](OC)[C@@H](C)[C@H](OC)c1ccccc1`
-0.15

----------
assay: adipocyte viability effects, profiling panel, cell-based, 3T3-L1 adipocytes, calcein-AM fluorescence, 48 h, basal (AID 1163); conditions: 3T3-L1 adipocytes viability, higher = more signal; also: test concentration not given here
Label true when z-score < 0.04; otherwise false.

Examples from the recorded data:
{"COMPOUND": "CCOC(=O)[C@H](CC(C)C)NC(=O)CCC1CC(OC(=O)NCc2ccc3c(c2)OCO3)CC2(CCCC(COC(=O)NCCc3ccc(Cl)cc3)O2)O1 (some centres not stated)", "CATEGORY": "true"}
{"COMPOUND": "C#CCCCON=C1C[C@@H](O)[C@@H](O)[C@@H]2[C@@H]3C(=O)N(C[C@@H]4CCCO4)C(=O)[C@@H]3CC[C@@H]12", "CATEGORY": "false"}
{"COMPOUND": "CCOC(=O)[C@H](Cc1ccccc1)NC(=O)CCC1CC(OC(=O)NCc2cccc3ccccc23)CC2(CCCC(COC(=O)NCCc3ccccc3OC)O2)O1 (some centres not stated)", "CATEGORY": "true"}
{"COMPOUND": "COc1ccc2c(c1)O[C@@H](c1cccc(C(F)(F)F)c1)[C@H](O)C2=O", "CATEGORY": "true"}
{"COMPOUND": "CCN1C(=O)[C@H]2[C@H]3[C@H](O)[C@H](O)CC(=NOCC(C)C)[C@H]3CC[C@H]2C1=O", "CATEGORY": "true"}
{"COMPOUND": "CC(CCC(=O)OC[C@H]1O[C@H](C#Cc2ccccc2)C=C[C@@H]1Oc1ccc(C)cc1)=NOC[C@@H](C)[C@H](OCc1ccccc1)C(C)C", "CATEGORY": "false"}
{"COMPOUND": "C[C@@H](c1ccccc1)N1C(=O)[C@H]2[C@H]3[C@H](O)[C@H](O)CC(=NOCc4ccccc4)[C@@H]3CC[C@H]2C1=O", "CATEGORY": "true"}
{"COMPOUND": "COc1cccc([C@H]2Oc3ccc(OC)cc3C(=NO[C@@H](C)c3cc(-c4c(C)cc(C)cc4C)no3)[C@@H]2O)c1", "CATEGORY": "true"}

Given `COc1ccc(COC(=O)NN=C2C[C@@H](O)[C@@H](O)[C@@H]3[C@@H]4C(=O)N(C(C)(C)C)C(=O)[C@@H]4CC[C@@H]23)cc1` , is recorded z-score strictly lower than 0.04?
false

Given CCOC(=O)[C@H](Cc1ccccc1)NC(=O)CCC1CC(OC(=O)NCCc2ccc(F)cc2)CC2(CCCC(COC(=O)NCCC(C)C)O2)O1 (some centres not stated) , is recorded z-score strictly lower than 0.04?
true

Given `COC(=O)[C@@H]1CC[C@H](C)[C@@H](c2ccc(Br)cc2)N1C(=O)C(F)(F)F` , is recorded z-score strictly lower than 0.04?
true

Given `CC(=O)OC[C@H]1O[C@H](CCON=C(C)C)C=C[C@@H]1OC(C)=O` , is recorded z-score strictly lower than 0.04?
true
